For each of the binders below, state its EC50 of IL-2 release (GS-J1 T cells + GS-C1/CD80 cells + human CTLA4-Fc, IL-2 HTRF).
Molecular target: T1, recombinant human CTLA4 protein with human IgG1 Fc tag at the C-terminus (Acro biosystems, Cat#CT4-H5255) (human, UniProt P16410 37-162)
T1 sequence (looked up): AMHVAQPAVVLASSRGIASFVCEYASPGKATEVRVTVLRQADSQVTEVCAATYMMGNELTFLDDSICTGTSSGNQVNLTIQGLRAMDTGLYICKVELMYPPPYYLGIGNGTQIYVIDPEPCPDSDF
Experiment: cell-based or functional assay
Numeric answer only, unit nM assumed.

Given mouse anti-CTLA4 monoclonal antibody D1H3 (antibody, V domains shown, mouse mAb purified from hybridoma supernatant) VH: QVQLQQPGAELVNPGASVKLSCKASGYTFTSYWLHWVKQRPGRGLEWIGRIDPNRGTIYYNEKFNNKATVTVDKPSNTAYMQLSRLTLEDSAVYYCARGGSNFYAMDYWGQGTSVTVSS VL: DIQMTQSPASLSASVGETVTITCRTSENIYSYLAWYQQKQGESPQLLVYNAKTLAEGVPSRFSGSGSGTQFSLKINSLQPEDFGSYYCQNHDGIPFTFGSGTKLEIK , state its recorded EC50 of IL-2 release (GS-J1 T cells + GS-C1/CD80 cells + human CTLA4-Fc, IL-2 HTRF).
37.8

And the next one, mouse anti-CTLA4 monoclonal antibody D2A4 (antibody, V domains shown, mouse mAb purified from hybridoma supernatant) VH: QVQLQQPGAELVKPGSSVNLSCKASGYTFTSYWVHWVKQGPGRGLEWIGRIDPNRGGTYYNENFKTKAALTVDSPSSTAYMHLSSLTSEDSAVYYCARGGLNYYALDYWGQGTSVTVSS VL: DIQMTQSPASLFASLGETVTITCRASENIYSYLAWYQQKQGKSPQLLVYNANTLTEGVPSSFSGSGSGTQFSLKINTLQPEDFGTYYCQHHYGIPFTFGSGTKLEIK ?
38.3

And the next one, mouse anti-CTLA4 monoclonal antibody D1A7 (antibody, V domains shown, mouse mAb purified from hybridoma supernatant) VH: QVTLKESGPGMLQPSQTLSLTCSFSGFSLSSSKLGVGWIRQPAGKGLEWLAHIWWNDDNYYVPSLKSRLTISKDTSNNQVFLKITNVDAADTATYYCVQVPYYTTQPWFAYWGQGTLVTVSA VL: DIQMTQSPASLSASVGETVTITCRASGNIHNYLAWYLQNQGRSPQLLVYNTETLADGVSSRFSGSGSGTQYFLKISSLQPEDFGTYYCQHLWSTPWTFGGGTKLEIK ?
45.9
